Exercise: for every item that follows, state its recorded IC50.
molecular target: Rat recombinant PDE10A (rPDE10A2) (Rattus norvegicus); construct: made in house; host or cells: Sf9 insect cells, baculovirus; assay: In vitro assay PDE10A (SPA, 3H-cAMP); type: biochemical; settings: Table 4a in vitro selectivity; read-out: IC50 PDE type 10A
Give bare numbers, in nM.

1. Cc1nc2c(N3CCOCC3)nccn2c1-c1ccc(C2CCOCC2)nc1 ... 160

Next item in the queue.
Q. Item `COCCc1ncc(-c2c(C)nc3c(N4CCOCC4)nccn23)cn1` has what recorded IC50?
A. 500

---

target: Rat recombinant PDE10A (rPDE10A2) (Rattus norvegicus, UniProt Q9QYJ6); construct: made in house; host or cells: Sf9 insect cells, baculovirus; assay: In vitro assay PDE10A (SPA, 3H-cAMP); assay type: biochemical; settings: pIC50 corresponds to the -log IC50 expressed in mol/L; read-out: PDE10A2 pIC50 (converted)
Sequence (Q9QYJ6 whole entry): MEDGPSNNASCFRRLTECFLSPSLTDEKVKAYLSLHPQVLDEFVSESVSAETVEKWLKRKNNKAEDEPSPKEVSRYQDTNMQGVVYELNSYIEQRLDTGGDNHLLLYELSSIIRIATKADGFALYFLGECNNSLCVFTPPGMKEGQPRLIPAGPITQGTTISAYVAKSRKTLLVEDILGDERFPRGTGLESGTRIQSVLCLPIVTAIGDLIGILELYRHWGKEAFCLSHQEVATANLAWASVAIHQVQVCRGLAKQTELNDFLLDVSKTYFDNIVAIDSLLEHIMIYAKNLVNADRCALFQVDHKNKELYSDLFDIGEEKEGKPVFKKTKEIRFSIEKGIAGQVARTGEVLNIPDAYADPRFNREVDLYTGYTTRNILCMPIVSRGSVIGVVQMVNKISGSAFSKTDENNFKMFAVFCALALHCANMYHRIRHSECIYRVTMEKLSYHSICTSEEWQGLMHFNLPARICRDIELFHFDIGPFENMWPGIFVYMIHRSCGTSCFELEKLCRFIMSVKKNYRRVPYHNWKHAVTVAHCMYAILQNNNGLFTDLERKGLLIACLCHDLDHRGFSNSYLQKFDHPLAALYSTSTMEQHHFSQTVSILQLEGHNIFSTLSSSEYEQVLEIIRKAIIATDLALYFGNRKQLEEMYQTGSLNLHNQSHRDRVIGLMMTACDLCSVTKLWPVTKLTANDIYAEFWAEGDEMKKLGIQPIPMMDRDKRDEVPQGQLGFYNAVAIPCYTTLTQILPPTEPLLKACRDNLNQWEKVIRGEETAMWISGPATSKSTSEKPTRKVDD
Give measured IC50 for each item. Keep answers brief.
One number for each entry, in nM.

Below: 3 compounds and their reported IC50.
1. c1cn2c(-c3cnn(CC4CC4)c3)cnc2c(N2CCOCC2)n1 ... 324
2. Cc1nc2c(N3CCOCC3)nccn2c1-c1ccc(CCN2CCCC2)nc1 ... 871
3. COCCn1cc(-c2c(C3CC3)nc3c(-c4ccncc4)nccn23)cn1 ... 50.1

Give IC50 for each listed item.
1. COC[C@@H](C)n1cc(-c2c(C)nc3c(N4CCOCC4)nccn23)cn1
2. Cc1nc2c(N3CCOCC3)nccn2c1-c1cnn(C2CCOC2)c1 (centres unmarked) [compound 82]
3. COCCn1cc(-c2cnc3c(N4CCOCC4)nccn23)cn1

A.
214
115
955

Give one value of IC50 per listed compound.
1. Cc1nc2c(N3CCOCC3)nccn2c1-c1cnn(CC2CCCO2)c1 (single isomer, unassigned) [compound 71]
2. COC(C)CCn1cc(-c2c(C)nc3c(N4CCOCC4)nccn23)cn1 (single isomer, unassigned) [compound 61]

A.
1. 95.5
2. 79.4

---

biological target: PDE6AB (Homo sapiens, UniProt P16499+P35913); test: In vitro PDE selectivity assay, PDE6AB; conditions: Table 4a in vitro selectivity; read-out: IC50 PDE type 6AB
Sequence (P16499 whole entry): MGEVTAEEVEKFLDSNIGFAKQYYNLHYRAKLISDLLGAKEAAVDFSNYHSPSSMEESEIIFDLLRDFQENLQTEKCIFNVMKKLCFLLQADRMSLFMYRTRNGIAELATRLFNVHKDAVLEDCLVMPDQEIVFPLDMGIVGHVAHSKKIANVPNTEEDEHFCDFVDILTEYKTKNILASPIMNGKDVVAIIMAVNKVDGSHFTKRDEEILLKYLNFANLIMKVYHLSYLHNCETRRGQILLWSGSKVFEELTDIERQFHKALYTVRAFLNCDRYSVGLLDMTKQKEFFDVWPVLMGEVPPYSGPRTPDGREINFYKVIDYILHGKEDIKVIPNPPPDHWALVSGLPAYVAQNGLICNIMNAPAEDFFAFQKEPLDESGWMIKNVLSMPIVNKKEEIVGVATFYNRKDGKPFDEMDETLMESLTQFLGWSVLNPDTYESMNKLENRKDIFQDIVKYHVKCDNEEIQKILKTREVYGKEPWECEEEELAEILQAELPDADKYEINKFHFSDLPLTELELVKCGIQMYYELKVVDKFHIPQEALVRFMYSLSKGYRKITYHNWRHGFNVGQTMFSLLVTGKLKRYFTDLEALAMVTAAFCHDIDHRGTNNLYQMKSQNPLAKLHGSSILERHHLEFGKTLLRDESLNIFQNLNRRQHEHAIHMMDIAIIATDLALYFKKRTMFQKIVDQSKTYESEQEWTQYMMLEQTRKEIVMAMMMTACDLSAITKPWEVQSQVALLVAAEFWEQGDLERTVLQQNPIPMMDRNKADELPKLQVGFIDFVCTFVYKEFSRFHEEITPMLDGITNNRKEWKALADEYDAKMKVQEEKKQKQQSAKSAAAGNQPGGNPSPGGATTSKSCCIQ
Sequence (P35913 whole entry): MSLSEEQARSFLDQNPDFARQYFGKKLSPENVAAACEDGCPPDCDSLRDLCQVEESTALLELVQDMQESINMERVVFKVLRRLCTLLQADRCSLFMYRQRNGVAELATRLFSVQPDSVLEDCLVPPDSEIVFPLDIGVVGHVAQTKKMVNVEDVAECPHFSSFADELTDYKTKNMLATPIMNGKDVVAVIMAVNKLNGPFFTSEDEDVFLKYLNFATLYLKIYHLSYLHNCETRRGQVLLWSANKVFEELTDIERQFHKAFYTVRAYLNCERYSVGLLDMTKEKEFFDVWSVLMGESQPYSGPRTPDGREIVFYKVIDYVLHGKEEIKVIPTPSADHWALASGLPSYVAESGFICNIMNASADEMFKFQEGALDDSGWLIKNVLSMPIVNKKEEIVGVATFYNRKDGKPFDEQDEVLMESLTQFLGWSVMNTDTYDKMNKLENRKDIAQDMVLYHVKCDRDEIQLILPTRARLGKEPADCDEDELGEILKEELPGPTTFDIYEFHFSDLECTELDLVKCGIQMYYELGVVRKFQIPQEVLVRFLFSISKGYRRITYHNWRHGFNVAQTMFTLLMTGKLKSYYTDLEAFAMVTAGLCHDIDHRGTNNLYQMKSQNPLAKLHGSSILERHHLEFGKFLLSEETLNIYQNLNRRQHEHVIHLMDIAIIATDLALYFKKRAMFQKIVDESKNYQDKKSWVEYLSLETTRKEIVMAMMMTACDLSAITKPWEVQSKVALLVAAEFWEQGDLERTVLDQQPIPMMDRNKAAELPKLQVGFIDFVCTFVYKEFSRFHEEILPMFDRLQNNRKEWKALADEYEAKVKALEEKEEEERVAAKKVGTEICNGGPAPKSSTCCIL
Quantity: pIC50
Answers are plain numbers, as −log10 of the molar value.

Q. Quick check: pIC50 on PDE6AB (Homo sapiens, UniProt P16499+P35913), item `Cc1nc2c(N3CCOCC3)nccn2c1-c1ccc(C2CCOCC2)nc1` ?
A. 4.02

---

biological target: PDE1B (Homo sapiens, UniProt Q01064)
Sequence (Q01064 whole entry): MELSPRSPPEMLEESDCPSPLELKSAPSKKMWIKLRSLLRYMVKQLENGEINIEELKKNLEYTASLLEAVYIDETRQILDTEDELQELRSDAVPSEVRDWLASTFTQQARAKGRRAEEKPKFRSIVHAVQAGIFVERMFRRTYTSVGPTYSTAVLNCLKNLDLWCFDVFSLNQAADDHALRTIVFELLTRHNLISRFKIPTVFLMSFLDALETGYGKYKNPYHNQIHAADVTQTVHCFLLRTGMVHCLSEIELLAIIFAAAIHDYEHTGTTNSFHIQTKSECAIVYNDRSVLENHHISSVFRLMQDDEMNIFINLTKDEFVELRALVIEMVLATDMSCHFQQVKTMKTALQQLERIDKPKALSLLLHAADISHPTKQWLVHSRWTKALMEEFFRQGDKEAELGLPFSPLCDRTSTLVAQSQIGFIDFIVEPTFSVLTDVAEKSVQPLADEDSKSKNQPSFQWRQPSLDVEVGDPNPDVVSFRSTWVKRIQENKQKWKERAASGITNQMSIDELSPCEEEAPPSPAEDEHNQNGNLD
Quantity: IC50 (nM)
Answers are plain numbers, in nM.

Q. Given the entry COCCc1ncc(-c2c(C)nc3c(N4CCOCC4)nccn23)cn1 [compound 33] , report its measured IC50.
A. 2950

---

target: Rat recombinant PDE10A (rPDE10A2) (Rattus norvegicus); construct: made in house; host or cells: Sf9 insect cells, baculovirus; experiment: In vitro assay PDE10A (SPA, 3H-cAMP); type: biochemical; conditions: pIC50 corresponds to the -log IC50 expressed in mol/L; read-out: PDE10A2 pIC50 (converted)
Note to self: use criterion met only for IC50 readings below 100 nM; a reading exactly at 100 nM still gets criterion not met.

Below are worked cases with known answers.
1. Cc1nc2c(N3CCOCC3)nccn2c1-c1cnn(C2CCOC2)c1 (single isomer, unassigned) [compound 109] ... criterion not met
2. Cc1nc2c(-c3ccncc3)nccn2c1-c1cnn(CCO)c1 ... criterion not met
3. c1cn2c(-c3ccc(C4CCOCC4)nc3)c(C3CC3)nc2c(N2CCOCC2)n1 ... criterion not met
4. COC[C@H](C)n1cc(-c2c(C)nc3c(-c4ccncc4)nccn23)cn1 ... criterion not met

Q. Input Cc1nc2c(N3CCOCC3)nccn2c1-c1cnn(CC2CCCCO2)c1 (centres unmarked) [compound 73] ; condition: IC50 strictly below 100 nM. Does it hold?
A. criterion met

Q. Record: `COC(C)(C)Cn1cc(-c2c(C3CC3)nc3c(N4CCOCC4)nccn23)cn1`
A. criterion met

Q. `Cc1nc2c(-c3ccncc3)nccn2c1-c1cnn(CC(F)(F)F)c1` ?
A. criterion met
